ASSAY_SYSTEM: UniProt:O60341
EXPERIMENT_DESCRIPTION: Inhibition of recombinant LSD1 (unknown origin) preincubated for 10 mins in presence of H3K4Me2 measured after 30 mins by measuring fluorescence intensity by fluorescence based microplate reader
# strict inequality: IC50 < 100 nM yields fulfilled, everything else yields not fulfilled

{"columns": ["STRUCTURE", "GROUP"],
 "data": [
  ["O=C(NCC1CCNCC1)c1cccc(CN[C@@H]2C[C@H]2c2ccc(F)c(F)c2)c1", "not fulfilled"],
  ["O=C(c1cccc(CN[C@@H]2C[C@H]2c2ccc(F)c(F)c2)c1)N1CCN(c2ccc(Cl)c(Cl)c2)CC1", "fulfilled"],
  ["O=C(c1cccc(CN[C@@H]2C[C@H]2c2ccc(F)c(F)c2)c1)N1CCN(c2ccccc2)CC1", "fulfilled"],
  ["NC(=O)CNC(=O)c1cccc(CN[C@@H]2C[C@H]2c2ccc(F)c(F)c2)c1", "not fulfilled"],
  ["CCCCNC(=O)c1cccc(CN[C@@H]2C[C@H]2c2ccc(F)c(F)c2)c1", "not fulfilled"],
  ["CN(Cc1ccccc1)C(=O)c1cccc(CN[C@@H]2C[C@H]2c2ccc(F)c(F)c2)c1", "fulfilled"]
]}

* * *

Here the recorded IC50 is given for each entry.
System: KYSE-450
EXPERIMENT_DESCRIPTION: Antiproliferative activity against human KYSE-450 cells incubated for 48 hrs measured by MTT assay
Assay type: functional, cell-based
TEST_CONTEXT: KYSE-450, 48 h

{"columns": ["STRUCTURE", "VALUE_OPERATOR", "IC50 [µM]"],
 "data": [
  ["NCC1CCN(C(=O)c2cccc(CN[C@@H]3C[C@H]3c3ccc(F)c(F)c3)c2)CC1", ">", 128],
  ["c1ccc([C@@H]2C[C@H]2NC2CCNCC2)cc1", ">", 64],
  ["CCN1CCN(c2ccc(NC(=O)c3cccc(CN[C@@H]4C[C@H]4c4ccc(F)c(F)c4)c3)cc2)CC1", "=", 24.8],
  ["O=C(c1cccc(CN[C@@H]2C[C@H]2c2ccc(F)c(F)c2)c1)N1CCc2ccccc21", "=", 51.5],
  ["O=C(c1cccc(CN[C@@H]2C[C@H]2c2ccc(F)c(F)c2)c1)N1CCN(c2ccc(Cl)c(Cl)c2)CC1", "=", 22.8],
  ["COC(=O)c1cccc(NC(=O)c2cccc(CN[C@@H]3C[C@H]3c3ccc(F)c(F)c3)c2)c1", "=", 67.9],
  ["NC(=O)C1CCN(C(=O)c2cccc(CN[C@@H]3C[C@H]3c3ccc(F)c(F)c3)c2)CC1", ">", 128]
]}

* * *

ASSAY_SYSTEM: Lysine-specific histone demethylase 1A (Homo sapiens)
EXPERIMENT_DESCRIPTION: Inhibition of recombinant LSD1 (unknown origin) preincubated for 10 mins in presence of H3K4Me2 measured after 30 mins by measuring fluorescence intensity by fluorescence based microplate reader
QUANTITY_NAME: IC50 (nM)

{"columns": ["STRUCTURE", "ASSAY_SYSTEM", "ASSAY_VALUE"],
 "data": [
  ["O=C(c1cccc(CN[C@@H]2C[C@H]2c2ccc(F)c(F)c2)c1)N1CCC(O)CC1", "Lysine-specific histone demethylase 1A (Homo sapiens)", 141],
  ["NC(=O)C1CCN(C(=O)c2cccc(CN[C@@H]3C[C@H]3c3ccc(F)c(F)c3)c2)CC1", "Lysine-specific histone demethylase 1A (Homo sapiens)", 108],
  ["O=C(NC1CC(F)(F)C1)c1cccc(CN[C@@H]2C[C@H]2c2ccc(F)c(F)c2)c1", "Lysine-specific histone demethylase 1A (Homo sapiens)", 115]
]}
